targetUnderTest: JAK2 (Homo sapiens, UniProt O60674)
Construct: made in house; host or cells: SF9 insect cells (baculovirus)
Sequence (O60674 812-1132): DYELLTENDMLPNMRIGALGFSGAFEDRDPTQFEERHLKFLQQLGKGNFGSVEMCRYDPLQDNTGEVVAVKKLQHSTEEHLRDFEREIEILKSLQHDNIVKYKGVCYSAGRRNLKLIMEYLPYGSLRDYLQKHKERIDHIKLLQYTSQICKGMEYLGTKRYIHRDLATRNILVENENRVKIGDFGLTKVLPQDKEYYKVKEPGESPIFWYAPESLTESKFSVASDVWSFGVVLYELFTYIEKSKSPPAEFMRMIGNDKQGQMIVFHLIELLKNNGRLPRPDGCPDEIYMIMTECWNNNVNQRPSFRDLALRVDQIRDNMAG
assayProcedure: JAK2 inhibition (Table 4)
Type: biochemical
experimentalConditions: read-out: JAK2 Ki
Recorded log10 of Ki values for a group of molecules are listed next.
Hello, just confirming the data are log10 of Ki with units of nM.

# example entries with known answers
[[record]]
molecule = "CC(O)c1nc2cnc3[nH]ccc3c2n1C1CC2CCC1O2 (single isomer, unassigned) [Example 905]"
targetundertest = "JAK2 (Homo sapiens, UniProt O60674)"
metricname = "log10 of Ki"
result = 1.98

[[record]]
molecule = "C#CCCN1CCC(n2c([C@@H](C)O)nc3cnc4[nH]ccc4c32)CC1"
targetundertest = "JAK2 (Homo sapiens, UniProt O60674)"
metricname = "log10 of Ki"
result = 2.46

[[record]]
molecule = "C[C@@H](O)c1nc2cnc3[nH]ccc3c2n1[C@@H]1CCCN(C(=O)C2CCC2)C1"
targetundertest = "JAK2 (Homo sapiens, UniProt O60674)"
metricname = "log10 of Ki"
result = 2.41

[[record]]
molecule = "COc1nc2cnc3[nH]ccc3c2n1C1CCN(CCC#N)CC1"
targetundertest = "JAK2 (Homo sapiens, UniProt O60674)"
metricname = "log10 of Ki"
result = 0.03

[[record]]
molecule = "C[C@@H](O)c1nc2cnc3[nH]ccc3c2n1C1CCN(CC(=O)N2CCOCC2)CC1"
targetundertest = "JAK2 (Homo sapiens, UniProt O60674)"
metricname = "log10 of Ki"
result = 3.16


Task item: Check the records and state log10 of Ki for N#CCCN1CCC(n2c(C3CCOCC3)nc3cnc4[nH]ccc4c32)CC1
Reply: 1.84

Task item: Check the records and state log10 of Ki for c1ccc(CCN2CCC(n3cnc4cnc5[nH]ccc5c43)CC2)cc1
Reply: 1.19

Task item: Check the records and state log10 of Ki for COCC(=O)NC1CCCC(n2cnc3cnc4[nH]ccc4c32)C1 (single isomer, unassigned) [Example 481]
Reply: 2.43

Task item: Check the records and state log10 of Ki for CCN1CC[C@@H](n2c(CCNS(=O)(=O)C(C)C)nc3cnc4[nH]ccc4c32)[C@@H](F)C1
Reply: 1.65

Task item: Check the records and state log10 of Ki for CS(=O)(=O)NCCc1nc2cnc3[nH]ccc3c2n1C1CCCCC1
Reply: 1.39
